Biological target: T1, apical domain of cynomolgus CD71 (cynomolgus, UniProt A0A2K5X958 189-383)
T1 construct: domain: apical domain; also called Cyno apical domain
T1 sequence (A0A2K5X958 entry or part of it): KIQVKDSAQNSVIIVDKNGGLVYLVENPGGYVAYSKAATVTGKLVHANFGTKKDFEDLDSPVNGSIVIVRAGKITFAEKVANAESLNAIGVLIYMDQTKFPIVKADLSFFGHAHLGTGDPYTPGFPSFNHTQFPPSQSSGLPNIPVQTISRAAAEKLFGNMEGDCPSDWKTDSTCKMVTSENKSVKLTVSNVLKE
Test: primary ELISA, ratio of signal to HSA control
quantity-kind: Cyno apical domain:HSA

Below are worked cases with known answers.
- binder: "CD71-binding FN3 domain of SEQ ID NO: 229 (designed binder) MSLPAPKNLVVSRVTEDSARLSWTAPDAAFDSFSIMYAEQKVNGEAIVLTVPGSERSYDLTGLKPGTEYLVLIWGVKGGGRSLPLSAIFTT"
  result-number: 119
- binder: "CD71-binding FN3 domain of SEQ ID NO: 223 (designed binder) MSLPAPKNLVVSRVTEDSARLSWTAPDAAFDSFEIAYFERTWFGEAIVLTVPGSERSYDLTGLKPGTEYWVAIGGVKGGLWSLPLSVIFTT"
  result-number: 47
- binder: "CD71-binding FN3 domain of SEQ ID NO: 231 (designed binder) MSLPAPKNLVVSRVTEDSARLSWTAPDAAFDSFFIGYLEPQPPGEAIHLFVPGSERSYDLTGLKPGTEYNVTIQGVKGGFPSEPLIANSTT"
  result-number: 63
- binder: "CD71-binding FN3 domain of SEQ ID NO: 226 (designed binder) MSLPAPKNLVISRVTEDSARLSWTAPDAAFDSFEIGYFENLYLGEAIVLTVPGSERSYDLTGLKPGTEYWVAIGGVKGGLWSLPLSAIFTT"
  result-number: 28

[I] CD71-binding FN3 domain of SEQ ID NO: 221 (designed binder) MSLPAPKNLVVSRVTEDSARLSWTAPDAAFDSFFIGYLEPRPPGEAIHLYVPGSERSYDLTGLKPGTEYNITIQGVKGGFPSIPLIASFTT
[II] CD71-binding FN3 domain of SEQ ID NO: 219 (designed binder, the tag is not included in the chain) MSLPAPKNLVVSRVTEDSARLSWTAPDAAFDSFAIMYGERGNPGEAIVLTVPGSERSYDLTGLKPGTEYAVWIYGVKGGNYSYPLSAIFTT
Query: # min-compare on Cyno apical domain:HSA between I and II // caller expects the label of the chosen entry
Response: II

[A] CD71-binding FN3 domain of SEQ ID NO: 232 (designed binder) MSLPAPKNLVVSRVTEDSARLSWTAPDAAFDSFEISYWEHTFNGEAIILFVPGSERSYDLTGLKPGTEYVVFIGGVKGGVWSVPLSAIFTT
[B] CD71-binding FN3 domain of SEQ ID NO: 224 (designed binder) MSLPAPKNLVVSRVTEDSARLSWTAPDAAFDSFEIGYWENAYKGEAIVLTVPGSERSYDLTGLKPGTEYVVFIGGVKGGGWSGPLSAIFTT
Query: Lab notebook, comparison: A versus B , higher Cyno apical domain:HSA goes to which? // caller expects the label of the chosen entry
Response: A

[a] CD71-binding FN3 domain of SEQ ID NO: 225 (designed binder) MSLPAPKNLVVSRVTEDSARLSWTAPDAAFDSFEIGYFENLYLGEAIVLTVPGSERSYDLTGLKPGTEYWVQIGGVKGGNWSAPLSAIFTT
[b] CD71-binding FN3 domain of SEQ ID NO: 222 (designed binder) MSLPAPKNLVVSRVTEDSARLSWTAPDAAFDSFFIGYLEPQPPGEAITLYVPGSERSYDLTGLKPGTEYNVTIQGVKGGFPSGPLIASFTT
[c] CD71-binding FN3 domain of SEQ ID NO: 220 (designed binder) MSLPAPKNLVVSRVTEDSARLSWTAPDAAFDSFEIAYWEQSYTGEAIVLTVPGSERSYDLTGLKPGTEYWVQIGGVKGGNWSAPLSAIFTT
[d] CD71-binding FN3 domain of SEQ ID NO: 227 (designed binder) MSLPAPKNLVVSRVTEDSARLSWTAPDAAFDSFEIAYAELSTGEAIVLTVPGSERSYDLTGLKPGTEYYVHIGGVKGGSWSIPLSAIFTT
Query: Sort ascending by Cyno apical domain:HSA. Return the labels ranked in the requested order, please.
Response: d, b, a, c
